meta.source: ChEMBL document CHEMBL5512664

- assay_overview: Cytotoxicity against African green monkey Vero E6 cells
- Assay type: toxicity, cell-based, Vero C1008
- stated_conditions: chlorocebus sabaeus
assay_endpoint: CC50 (µM)
Unit µM implied. Number only.

[Q] Dear colleague, I am looking for the recorded CC50 of the following molecule: C[C@@H](NC(=O)[C@H](c1cccnc1)N(C(=O)C(Br)(Br)Br)c1ccc(-c2ccccc2)cc1)c1ccccc1
[A] 5.48

---

- assay_overview: Toxicity in ip dosed mature male rabbit assessed as death
- Format: organism-based, Oryctolagus cuniculus
- stated_conditions: in vivo
assay_endpoint: LD50
Please format your answer as a value with the unit trailing.

[Q] Fill blank: measured LD50 of the compound O=C(NCCCCCCCCNC(=O)C(Cl)Cl)C(Cl)Cl is ____.
[A] 10000 mg/kg
